Target: Orexin receptor type 2 (Homo sapiens)
Sequence (O43614 whole entry): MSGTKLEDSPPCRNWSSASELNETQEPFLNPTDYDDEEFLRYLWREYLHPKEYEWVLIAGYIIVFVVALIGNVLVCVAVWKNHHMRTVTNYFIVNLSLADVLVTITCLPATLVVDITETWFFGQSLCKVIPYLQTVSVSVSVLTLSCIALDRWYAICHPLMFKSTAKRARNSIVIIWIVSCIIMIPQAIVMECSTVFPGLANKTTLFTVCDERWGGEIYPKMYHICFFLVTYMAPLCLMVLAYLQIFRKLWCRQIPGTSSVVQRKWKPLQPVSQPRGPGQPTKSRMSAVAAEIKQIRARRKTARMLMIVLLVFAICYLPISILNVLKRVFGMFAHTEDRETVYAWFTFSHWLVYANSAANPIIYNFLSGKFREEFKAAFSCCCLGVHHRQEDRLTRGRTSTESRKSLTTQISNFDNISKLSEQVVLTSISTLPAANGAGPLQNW
Assay: Agonist activity at human OX2R expressed in CHO cells
reported endpoint: EC50 (nM)
Write the number in nM without appending the unit.

Q: Query: EC50; subject: CCN(C(=O)N[C@@H](C1CCCC(F)(F)C1)C(F)(F)F)[C@H](C)c1cccc(-c2cn3ccnc3c(OC)n2)c1 (stereo partly specified)
A: 0.9

Cited source: ChEMBL document CHEMBL5120977
